tested on: A498 renal; assay: NCI tumour cell line growth inhibition, 48 h
OBSERVED_PROPERTY: TGI (µM)
Please respond with the number in µM and leave the unit unwritten.

{"columns": ["COMPOUND", "OBSERVED_PROPERTY", "NUMERIC_READOUT"],
 "data": [
  ["CNC/C(Cl)=N/S(=O)(=O)c1ccc(C)cc1", "TGI", 54.4],
  ["CN(C)CCCNc1ccc2c(=O)n(CCN(C)C)c(=O)n3c4ccccc4c(=O)c1c23", "TGI", 5.35],
  ["O=S(=O)(NCCCNc1nccc(-c2c(-c3ccc(F)c(O)c3)nc3sccn23)n1)c1ccc(F)cc1", "TGI", 6.81]
]}

Incoming: Look up and report TGI, with A498 renal as system, for `COc1cccc2c1CCc1cc3c(N)nc(N)nc3nc1-2`
Outgoing: 32.9

Incoming: Provide TGI, system A498 renal, entry `Clc1ccc(OCc2nnc(CCCCCCCCc3nnc(COc4ccc(Cl)cc4Cl)n3Nc3ccccc3)n2Nc2ccccc2)c(Cl)c1`
Outgoing: 55.6

Incoming: Give the observed TGI of O=C1CCCCCCCCCCC1CCCCCBr (stereo unspecified) for A498 renal.
Outgoing: 28.2

From: PubChem BioAssay (NCI)
